Biological target: T1, pKal catalytic domain Mutant 1 (human, UniProt P03952 391-638, limits assumed)
T1 construct: domain: catalytic domain; Expressed in Pichia pastoris, purified by IMAC; not shown: His tag fusion
T1 sequence (P03952 other isoform, or with tags, fused parts or gaps mutant limits assumed): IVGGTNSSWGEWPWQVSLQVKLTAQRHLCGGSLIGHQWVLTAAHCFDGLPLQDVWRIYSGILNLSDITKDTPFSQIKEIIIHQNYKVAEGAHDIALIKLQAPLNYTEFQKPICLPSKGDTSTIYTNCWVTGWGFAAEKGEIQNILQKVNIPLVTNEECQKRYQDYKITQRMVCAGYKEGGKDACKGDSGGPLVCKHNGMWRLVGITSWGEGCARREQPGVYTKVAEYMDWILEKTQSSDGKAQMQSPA
Test: Ki,app: enzyme inhibition, fluorescent substrate, 2 h pre-incubation at 30 C, tight-binding fit
Threshold 0.3 nM: Ki strictly smaller gives y, otherwise n.

Please review the following examples before continuing.
INSERT INTO assay_data (binder, class) VALUES
  ('M145-D11 (Fab, V domains shown, also called 559A-M145-D11 (sFab); 559A-M0145-D11) VH: EVQLLESGGGLVQPGGSLRLSCAASGFTFSHYRMSWVRQAPGKGLEWVSSIYPSGGRTVYADSVKGRFTISRDNSKNTLYLQMNSLRAEDTAVYYCAKDKFEWRLLFRGIGNDAFDIWGQGTMVTVSS VL: QSVLTQPPSVSVSPGQTASITCSGDKLGDKYTSWYQQRPGQSPVLVIYQDIKRPSGIPERFSGSNSGNTATLTISGTQAMDEADYYCQAWDSPNARVFGSGTKVTVL', 'y'),
  ('X115-D01 (antibody, V domains shown, only variable domains given; also called 559A-X115-D01; 559A-X0115-D01) VH: EVQLLESGGGLVQPGGSLRLSCAASGFTFSIYSMHWVRQAPGKGLEWVSSIYPSRGMTWYADSVKGRFTISRDNSKNTLYLQMNSLRAEDTAVYYCAYRRTGIPRRDAFDIWGQGTMVTVSS VL: DIQMTQSPSTLSASVGDRVTITCRASQSISSWLAWYQQKPGKAPKLLIYKASTLESGVPSRFSGSGSGTEFTLTISSLQPDDFATYYCQQYNTYWTFGQGTKVEIK', 'y'),
  ('M29-D09 (Fab, V domains shown, also called 559A-M29-D09 (sFab); 559A-M0029-D09) VH: EVQLLESGGGLVQPGGSLRLSCAASGFTFSWYTMVWVRQAPGKGLEWVSYIYPSGGATFYADSVKGRFTISRDNSKNTLYLQMNSLRAEDTAVYYCAMGSYDYIWGFYSDHWGQGTLVTVSS VL: QSALTQPPTVSVSPGQTARITCSGNKLGDKYVAWYQQKPGQSPMLVIYQDTKRPSRVSERFSGSNSANTATLSISGTQALDEADYYCQAWDSSIVIFGGGTRLTVL', 'y');

Query: Please check: Ki for M35-G04 (antibody, V domains shown, Only variable domains printed; also called 559A-M35-G04; 559A-M0035-G04) VH: EVQLLESGGGLVQPGGSLRLSCAASGFTFSYYHMSWVRQAPGKGLEWVSVISPSGGSTKYADSVKGRFTISRDNSKNTLYLQMNSLRAEDTAVYYCARGGSSDYAWGSYRRPYYFDYWGQGTLVTVSS VL: DIQMTQSPATLSLSPGERATLSCRASQSVSSYLAWYQQKPGQAPRLLIYDASNRATGIPARFSGSGSGTDFTLTISSLEPEDFAVYYCQQRSNWPRGFTFGPGTKVDIK , strictly under 0.3 nM or not?
Response: y
